- Tested on: Plasmodium falciparum TM91C235
- test details: In vitro antimalarial [3H]-hypoxanthine incorporation assay, strain TM91C235
- Format: cell-based
- measurement context: P. falciparum TM91C235 (multiple drug resistant isolate from Thailand), parasites exposed for 72 hours, azithromycin value averaged
Note to self: use MET only for IC50 readings below 0.4 µg/mL; a reading exactly at 0.4 µg/mL still gets NOT MET.

compound | assayed target | label
CC[C@H]1OC(=O)[C@H](C)[C@@H](O[C@H]2C[C@@](C)(OC)[C@@H](O)[C@H](C)O2)[C@H](C)[C@@H](O[C@@H]2O[C@H](C)C[C@H](N(C)C)[C@H]2O)[C@](C)(O)C[C@@H](C)CN(C(=O)NS(=O)(=O)c2ccccc2Cl)[C@H](C)[C@@H](O)[C@]1(C)O [Compound 3] | Plasmodium falciparum TM91C235 | NOT MET
CC[C@H]1OC(=O)[C@H](C)[C@@H](O)[C@H](C)[C@@H](O[C@@H]2O[C@H](C)C[C@H](N(C)C)[C@H]2O)[C@](C)(O)C[C@@H](C)CN(C(=O)Nc2ccc(S(=O)(=O)Nc3cc(C)on3)cc2)[C@H](C)[C@@H](O)[C@]1(C)O [Compound 5] | Plasmodium falciparum TM91C235 | NOT MET
CC[C@H]1OC(=O)[C@H](C)[C@@H](O[C@H]2C[C@@](C)(OC)[C@@H](O)[C@H](C)O2)[C@H](C)[C@@H](O[C@@H]2O[C@H](C)C[C@H](N(C)C)[C@H]2O)[C@](C)(O)C[C@@H](C)CN(C(=O)Nc2cccc3ccccc23)[C@H](C)[C@@H](O)[C@]1(C)O [Compound 8] | Plasmodium falciparum TM91C235 | NOT MET
CC[C@H]1OC(=O)[C@H](C)[C@@H](O[C@H]2C[C@@](C)(OC)[C@@H](O)[C@H](C)O2)[C@H](C)[C@@H](O[C@@H]2O[C@H](C)C[C@H](N(C)C)[C@H]2O)[C@](C)(O)C[C@@H](C)CN(C(=O)Nc2ccc(S(=O)(=O)Nc3ccccc3)cc2)[C@H](C)[C@@H](O)[C@]1(C)O [Compound 1] | Plasmodium falciparum TM91C235 | MET
CC[C@H]1OC(=O)[C@H](C)[C@@H](O[C@H]2C[C@@](C)(OC)[C@@H](O)[C@H](C)O2)[C@H](C)[C@@H](O[C@@H]2O[C@H](C)C[C@H](N(C)C)[C@H]2O)[C@](C)(O)C[C@@H](C)CN(C(=O)Nc2ccc(S(=O)(=O)Nc3ccccn3)cc2)[C@H](C)[C@@H](O)[C@]1(C)O [Compound 2] | Plasmodium falciparum TM91C235 | NOT MET
CC[C@H]1OC(=O)[C@H](C)[C@@H](O[C@H]2C[C@@](C)(OC)[C@@H](O)[C@H](C)O2)[C@H](C)[C@@H](O[C@@H]2O[C@H](C)C[C@H](N(C)C)[C@H]2O)[C@](C)(O)C[C@@H](C)CN(C(=S)NCc2ccccc2)[C@H](C)[C@@H](O)[C@]1(C)O [Compound 11] | Plasmodium falciparum TM91C235 | MET
CC[C@H]1OC(=O)[C@H](C)[C@@H](O[C@H]2C[C@@](C)(OC)[C@@H](O)[C@H](C)O2)[C@H](C)[C@@H](O[C@@H]2O[C@H](C)C[C@H](N(C)C)[C@H]2O)[C@](C)(O)C[C@@H](C)CN(C(=O)Nc2ccc(S(=O)(=O)Nc3cc(C)on3)cc2)[C@H](C)[C@@H](O)[C@]1(C)O [Compound 4] | Plasmodium falciparum TM91C235 | NOT MET
CC[C@H]1OC(=O)[C@H](C)[C@@H](O[C@H]2C[C@@](C)(OC)[C@@H](O)[C@H](C)O2)[C@H](C)[C@@H](O[C@@H]2O[C@H](C)C[C@H](N(C)C)[C@H]2OC(C)=O)[C@](C)(O)C[C@@H](C)CN(C(=O)NC(C)C)[C@H](C)[C@@H](O)[C@]1(C)O [Compound 10] | Plasmodium falciparum TM91C235 | MET
CC[C@H]1OC(=O)[C@H](C)[C@@H](O)[C@H](C)[C@@H](O[C@@H]2O[C@H](C)C[C@H](N(C)C)[C@H]2O)[C@](C)(O)C[C@@H](C)CN(C(=O)Nc2ccc(S(=O)(=O)Nc3ccccn3)cc2)[C@H](C)[C@@H](O)[C@]1(C)O [Compound 6] | Plasmodium falciparum TM91C235 | NOT MET
